Attribute: pIC50
- Tested on: ULK kinase substrate ATG13 (pS318-ATG13) in MiaPaCa-2 cells
- testDescription: pATG13 levels of mutant KRas MiaPaCa-2 cells after treatment with ULK inhibitors in combination with trametinib (ELISA)
- Assay type: cell-based, human
pIC50: −log10 of the molar value.

1) CC/C(Nc1cnn(CC(C)OC)c1)=C1/C(=O)Nc2ccc(C(=O)NCC(F)(F)F)cc21 (stereo not drawn) [Example 157] | ≥ 7.00
2) CC/C(Nc1cnn(CC(F)F)c1)=C1/C(=O)Nc2ccc(C(=O)NCC(C)(C)F)cc21 [Example 161] | ≥ 7.00
3) CC/C(Nc1cnn(C2CN(C)C2)c1)=C1/C(=O)Nc2ccc(C(=O)NC[C@H]3CCCO3)cc21 [Example 54] | ≥ 7.00

# next molecule below
Query: Entry under review: C/C(Nc1cnn(C2CCN(C(C)C)CC2)c1)=C1/C(=O)Nc2ccc(C(=O)NCC(F)(F)F)cc21 [Example 24] . Reported pIC50?
Response: ≥ 7.00

----------
Attribute: IC50
- assayedSystem: ULK1 kinase (Homo sapiens, UniProt O75385, E37A/K38A)
- Construct: (residues 1-283; ID NO: 1)
- testDescription: Biochemical assay for ULK1 (coupled pyruvate kinase/lactate dehydrogenase assay)
- testSettings: 1 mM ATP, 0.1 nM ULK1; read-out: ULK1 (inhibition of biochemical activity), IC50

1) CC/C(Nc1cnn(C2CCN(C)CC2)c1)=C1/C(=O)Nc2ccc(C(=O)NC[C@H]3CCCO3)cc21 [Example 51] | ≤ 10 nM
2) CC/C(Nc1cnn(C(C)C)c1)=C1/C(=O)Nc2ccc(C(=O)NCC3(F)CC3)cc21 [Example 152] | ≤ 10 nM
3) CC/C(Nc1cccnc1)=C1/C(=O)Nc2ccc(C(=O)NCC(F)(F)F)cc21 [Example 124] | 100 to 500 nM

# next compound below
Query: Entry under review: CC/C(Nc1ccc(N2C[C@H]3CN(C)C[C@H]3C2)cc1)=C1/C(=O)Nc2ccc(C(=O)NC[C@H]3CCCO3)cc21 [Example 64] . Reported IC50?
Response: 10 to 100 nM

----------
- assayedSystem: ULK1 kinase (Homo sapiens, UniProt O75385, E37A/K38A)
- Construct: (residues 1-283; ID NO: 1)
- testDescription: Biochemical assay for ULK1 (coupled pyruvate kinase/lactate dehydrogenase assay)
- testSettings: 1 mM ATP, 0.1 nM ULK1; read-out: ULK1 (inhibition of biochemical activity), IC50
Attribute: IC50

Examples with their reported IC50 follow.
1) CC/C(Nc1cnn(CCOC)c1)=C1/C(=O)Nc2ccc(C(=O)NCC(F)(F)F)cc21 [Example 102] | 10 to 100 nM
2) CC/C(Nc1cnn(C(C)C)c1)=C1/C(=O)Nc2ccc(C(=O)NCCC#N)cc21 [Example 127] | 10 to 100 nM

# next molecule below
Query: Entry under review: CC/C(Nc1cnn(CC(F)(F)F)c1)=C1/C(=O)Nc2ccc(C(=O)NCC(C)(C)F)cc21 [Example 160] . Reported IC50?
Response: ≤ 10 nM

----------
- System: ULK kinase substrate ATG13 (pS318-ATG13) in MiaPaCa-2 cells
- testDescription: pATG13 levels of mutant KRas MiaPaCa-2 cells after treatment with ULK inhibitors in combination with trametinib (ELISA)
- Assay type: cell-based, human
recordedMetric: IC50

1. CC/C(Nc1cnn(C2CCOCC2)c1)=C1/C(=O)Nc2ccc(C(=O)NCC(F)(F)F)cc21 | ≤ 100 nM
2. CC/C(Nc1ccc(N2CC3(COC3)C2)cc1)=C1/C(=O)Nc2ccc(C(=O)NCC(F)(F)F)cc21 | 100 to 300 nM
3. CC/C(Nc1cnn(CCN(C)C)c1)=C1/C(=O)Nc2ccc(C(=O)NCC(F)(F)F)cc21 | ≤ 100 nM

Query: Entry under review: `CC/C(Nc1cnn(C(C)C)c1)=C1/C(=O)Nc2ccc(C(=O)NCC3(F)CC3)cc21` . Reported IC50?
Response: ≤ 100 nM

----------
Attribute: pIC50
- assayedSystem: ULK1 kinase (Homo sapiens, UniProt O75385, E37A/K38A)
- Construct: (residues 1-283; ID NO: 1)
- Sequence (O75385 1-283 E37A/K38A): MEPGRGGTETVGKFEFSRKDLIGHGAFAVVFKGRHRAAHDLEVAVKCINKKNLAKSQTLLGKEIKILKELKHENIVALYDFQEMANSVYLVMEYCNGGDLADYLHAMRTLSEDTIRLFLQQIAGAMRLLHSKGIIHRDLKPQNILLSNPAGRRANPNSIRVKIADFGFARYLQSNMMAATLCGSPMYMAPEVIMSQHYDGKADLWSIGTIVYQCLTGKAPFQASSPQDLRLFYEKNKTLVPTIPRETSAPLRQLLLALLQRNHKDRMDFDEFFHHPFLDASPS
- testDescription: Biochemical assay for ULK1 (coupled pyruvate kinase/lactate dehydrogenase assay)
- testSettings: 1 mM ATP, 0.1 nM ULK1; read-out: ULK1 (inhibition of biochemical activity), IC50
pIC50: −log10 of the molar value.

Examples with their reported pIC50 follow.
1) CC/C(Nc1cnn(C2CCN(C(C)C)CC2)c1)=C1/C(=O)Nc2ccc(C(C)=O)cc21 | 6.30 to 7.00
2) CC/C(Nc1cnn(CC(C)OC)c1)=C1/C(=O)Nc2ccc(C(=O)NCC(F)(F)F)cc21 (stereo not shown) [Example 158] | 7.00 to 8.00
3) CC/C(Nc1cnn(C2CCN(C(C)C)CC2)c1)=C1/C(=O)Nc2ccc(C(=O)NOC)cc21 | 7.00 to 8.00

# next compound below
Query: Entry under review: `CC/C(Nc1cc(C(C)C)ccn1)=C1/C(=O)Nc2ccc(C(=O)NCC(F)(F)F)cc21` . Reported pIC50?
Response: 6.30 to 7.00

----------
- assayedSystem: ULK1 kinase (Homo sapiens, UniProt O75385, E37A/K38A)
- Construct: (residues 1-283; ID NO: 1)
- testDescription: Biochemical assay for ULK1 (coupled pyruvate kinase/lactate dehydrogenase assay)
- testSettings: 1 mM ATP, 0.1 nM ULK1; read-out: ULK1 (inhibition of biochemical activity), IC50
Attribute: IC50

Examples with their reported IC50 follow.
1. CC/C(Nc1cnn(CC(C)OC)c1)=C1/C(=O)Nc2ccc(C(=O)NCC(F)(F)F)cc21 (stereo not drawn) [Example 157] | 10 to 100 nM
2. C/C(Nc1cnn(C(C)C)c1)=C1/C(=O)Nc2ccc(C(=O)NCC(F)(F)F)cc21 [Example 101] | ≤ 10 nM
3. CC/C(Nc1cnn(C2CCN(C(C)C)CC2)c1)=C1/C(=O)Nc2ccc(C(=O)NC[C@@H]3CCCO3)cc21 [Example 19] | 10 to 100 nM
4. CC/C(Nc1cnn(C2CCOCC2)c1)=C1/C(=O)Nc2ccc(C(=O)NCC(C)(C)F)cc21 [Example 173] | ≤ 10 nM
5. CC/C(Nc1ccc(N2CCN(C(C)C)CC2)cc1)=C1/C(=O)Nc2ccc(C(=O)NC[C@H]3CCCO3)cc21 [Example 47] | ≤ 10 nM

# next compound below
Query: Entry under review: CC/C(Nc1cnn(CC(F)F)c1)=C1/C(=O)Nc2ccc(C(=O)NCC3(C(F)(F)F)CC3)cc21 [Example 181] . Reported IC50?
Response: ≤ 10 nM

----------
- Tested on: ULK kinase substrate ATG13 (pS318-ATG13) in MiaPaCa-2 cells
- testDescription: pATG13 levels of mutant KRas MiaPaCa-2 cells after treatment with ULK inhibitors in combination with trametinib (ELISA)
- Assay type: cell-based, human
pIC50: −log10 of the molar value.
Attribute: pIC50

Examples with their reported pIC50 follow.
1) CC/C(Nc1cn(C(C)C)nn1)=C1/C(=O)Nc2ccc(C(=O)NCC(F)(F)F)cc21 [Example 122] | 6.52 to 7.00
2) CC/C(Nc1cnn(C(C)C)c1)=C1/C(=O)Nc2ccc(C(=O)N(C)CC(F)(F)F)cc21 [Example 125] | 6.52 to 7.00
3) CC/C(Nc1cnn(CC)c1)=C1/C(=O)Nc2ccc(C(=O)NCC(F)(F)F)cc21 [Example 107] | ≥ 7.00
4) CC/C(Nc1cnn(C2CCN(C(C)C)CC2)c1)=C1/C(=O)Nc2ccc(C(=O)NC3CC(F)(F)C3)cc21 [Example 29] | ≥ 7.00
5) CC/C(Nc1cnn(C2CC2)c1)=C1/C(=O)Nc2ccc(C(=O)NCC(F)(F)F)cc21 [Example 116] | ≥ 7.00

# next molecule below
Query: Lab note: need pIC50 for CC/C(Nc1cnn(CC)c1)=C1/C(=O)Nc2ccc(C(=O)NCC3(F)CC3)cc21 [Example 153] on ULK kinase substrate ATG13 (pS318-ATG13) in MiaPaCa-2 cells, anyone have it?
Response: ≥ 7.00

----------
- assayedSystem: ULK2 kinase (Homo sapiens, UniProt Q8IYT8)
- Sequence (Q8IYT8 with tags, fused parts or gaps): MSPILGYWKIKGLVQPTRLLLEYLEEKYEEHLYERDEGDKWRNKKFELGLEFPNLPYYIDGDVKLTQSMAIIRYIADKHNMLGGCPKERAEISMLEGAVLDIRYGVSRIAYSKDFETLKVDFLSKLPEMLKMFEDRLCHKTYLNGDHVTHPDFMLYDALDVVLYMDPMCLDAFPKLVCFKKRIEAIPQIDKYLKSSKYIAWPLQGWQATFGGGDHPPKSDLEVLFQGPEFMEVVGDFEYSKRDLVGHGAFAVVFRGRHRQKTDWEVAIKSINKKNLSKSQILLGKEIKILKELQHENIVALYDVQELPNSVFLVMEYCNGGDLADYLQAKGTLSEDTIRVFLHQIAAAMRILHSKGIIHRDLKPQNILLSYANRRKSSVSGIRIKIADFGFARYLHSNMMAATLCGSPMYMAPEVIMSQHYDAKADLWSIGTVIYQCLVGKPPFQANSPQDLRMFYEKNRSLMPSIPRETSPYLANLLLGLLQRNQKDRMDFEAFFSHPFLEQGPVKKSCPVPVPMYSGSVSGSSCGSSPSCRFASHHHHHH
pIC50: −log10 of the molar value.
recordedMetric: pIC50

Examples with their reported pIC50 follow.
1) CC/C(Nc1cnn(C(C)C)c1)=C1/C(=O)Nc2ccc(C(=O)NCCC(C)(C)F)cc21 | 7.00 to 8.00
2) CC/C(Nc1cnn(C(F)F)c1)=C1/C(=O)Nc2ccc(C(=O)NCC(F)(F)F)cc21 | 7.00 to 8.00
3) CC/C(Nc1ccc(N2CC3CC2CN3C)cc1)=C1/C(=O)Nc2ccc(C(=O)NCC(F)(F)F)cc21 (centres unmarked) | 7.00 to 8.00
4) CC/C(Nc1cnn(C2CCN(C(C)C)CC2)c1)=C1/C(=O)Nc2ccc(C(=O)NCC3CCO3)cc21 (centres unmarked) | 7.00 to 8.00
5) CC/C(Nc1cnn(C2CCN(C(C)C)CC2)c1)=C1/C(=O)Nc2ccc(C(=O)NC[C@@H](C)OC)cc21 | 6.30 to 7.00

Query: Entry under review: `CC/C(Nc1cnn(C2CN(C)C2)c1)=C1/C(=O)Nc2ccc(C(=O)NC[C@H]3CCCO3)cc21` . Reported pIC50?
Response: 7.00 to 8.00

Query: Entry under review: `CC/C(Nc1ccc(N2CC3CC(C2)N3C)cc1)=C1/C(=O)Nc2ccc(C(=O)NCC(C)C)cc21` . Reported pIC50?
Response: 7.00 to 8.00

Query: Entry under review: `CC/C(Nc1cnn(C2COC2)c1)=C1/C(=O)Nc2ccc(C(=O)NCC(F)(F)F)cc21` . Reported pIC50?
Response: 7.00 to 8.00

Query: Entry under review: `CC/C(Nc1cnn([C@H]2CCOC2)c1)=C1/C(=O)Nc2ccc(C(=O)NCC(F)(F)F)cc21` . Reported pIC50?
Response: 7.00 to 8.00

Query: Entry under review: `CC/C(Nc1cnn(C(C)C)c1)=C1/C(=O)Nc2ccc(C(=O)Nc3cnn(CC(F)(F)F)c3)cc21` . Reported pIC50?
Response: < 6.30

Query: Entry under review: `CC/C(Nc1ccc(N2CC3CC(C2)N3C)cc1)=C1/C(=O)Nc2ccc(C(=O)NC[C@H]3CCCO3)cc21` . Reported pIC50?
Response: 7.00 to 8.00

Query: Entry under review: `CC/C(Nc1cnn(C2CCN(C(C)C)CC2)c1)=C1/C(=O)Nc2ccc(C(C)=O)cc21` . Reported pIC50?
Response: 6.30 to 7.00

Query: Entry under review: `CC/C(Nc1cnc(N2CCN(C)CC2)nc1)=C1/C(=O)Nc2ccc(C(=O)NCC(F)(F)F)cc21` . Reported pIC50?
Response: < 6.30

Query: Entry under review: `CC/C(Nc1cnn(C2CCN(C(C)C)CC2)c1)=C1/C(=O)Nc2ccc(C(=O)NCC(F)(F)F)cc21` . Reported pIC50?
Response: 7.00 to 8.00
